All values here come from patent US6875884B1.

Known Chemotaxis Assay 10 μM (inhibition %) of a selection of compounds
Target: CCR-3 (Homo sapiens)
Sequence (P51677 1-355): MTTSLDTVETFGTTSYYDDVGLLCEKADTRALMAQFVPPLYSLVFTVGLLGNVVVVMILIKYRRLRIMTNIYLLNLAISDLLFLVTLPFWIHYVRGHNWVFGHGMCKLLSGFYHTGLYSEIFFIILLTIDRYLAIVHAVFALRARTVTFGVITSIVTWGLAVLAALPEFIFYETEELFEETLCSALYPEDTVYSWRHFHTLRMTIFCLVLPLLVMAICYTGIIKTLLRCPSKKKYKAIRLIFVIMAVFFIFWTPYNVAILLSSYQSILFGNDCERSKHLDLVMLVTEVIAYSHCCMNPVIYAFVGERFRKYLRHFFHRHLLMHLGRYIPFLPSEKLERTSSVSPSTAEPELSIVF
Test: Inhibition of eotaxin-induced chemotaxis of CCR-3 transfectant cells (CCR3/U937)
Format: cell-based
Design: expressed in transfected cells; host or cells: U937
Settings: compound 10 μM, eotaxin 1×10^−9 M, Table 3a
Description: The inhibitory activity of the compounds against eotaxin-induced chemotaxis was determined by measuring the inhibition of migration of CCR-3 transfectant cells (CCR3/U937), using a minor modification of the method described by Ohashi, H. et al., Int Arch Allergy Immunol. (1999) 118, 44-50. […] After incubation, migrated cells in lower wells were diluted and counted by particle size distribution analyzer (CDP-500, Sysmex Co., Ltd.)
Observable: Chemotaxis Assay 10 μM (inhibition %)

{"Compound": "COC(=O)CCCN(CCCNC(=S)Nc1ccc(I)cc1)C1CCCc2ccccc21 (centres unmarked)", "Readout Units": "%", "Test Value": 100}
{"Compound": "O=C(O)CCCN(CC[C@H](NC(=O)Nc1ccc(Br)cc1)C(=O)NCc1ccccc1)C1CCCc2ccccc21 (some centres unmarked)", "Readout Units": "%", "Test Value": 100}
{"Compound": "CCN(CCCNC(=O)Nc1ccc(Cl)cc1)CCc1ccc(Cl)cc1", "Readout Units": "%", "Test Value": 100}
{"Compound": "COC(=O)CCCN(CCCNC(=S)Nc1ccc(Br)cc1)C1CCCc2ccccc21 (centres unmarked)", "Readout Units": "%", "Test Value": 100}
{"Compound": "COC(=O)CCCN(CC[C@H](NC(=O)Nc1ccc(Br)cc1)C(=O)OC(C)(C)C)C1CCCc2ccccc21 (some centres unmarked)", "Readout Units": "%", "Test Value": 100}
{"Compound": "CC(c1ccccc1)N(CCCNC(=S)Nc1ccc(Br)cc1)CCCC(=O)O (centres unmarked)", "Readout Units": "%", "Test Value": 100}
{"Compound": "COC(=O)CCCN(CCCNC(=S)Nc1cccc(Br)c1)C1CCCc2ccccc21 (centres unmarked)", "Readout Units": "%", "Test Value": 74}
{"Compound": "O=C(O)CCCN(CCCNC(=O)Nc1cc(Cl)nc(Cl)c1)C1CCCc2ccccc21 (centres unmarked)", "Readout Units": "%", "Test Value": 96}
